Sourced from patent US20250313560A1

Target: P450 3A4 (Homo sapiens (Human))
Sequence (P08684 whole entry): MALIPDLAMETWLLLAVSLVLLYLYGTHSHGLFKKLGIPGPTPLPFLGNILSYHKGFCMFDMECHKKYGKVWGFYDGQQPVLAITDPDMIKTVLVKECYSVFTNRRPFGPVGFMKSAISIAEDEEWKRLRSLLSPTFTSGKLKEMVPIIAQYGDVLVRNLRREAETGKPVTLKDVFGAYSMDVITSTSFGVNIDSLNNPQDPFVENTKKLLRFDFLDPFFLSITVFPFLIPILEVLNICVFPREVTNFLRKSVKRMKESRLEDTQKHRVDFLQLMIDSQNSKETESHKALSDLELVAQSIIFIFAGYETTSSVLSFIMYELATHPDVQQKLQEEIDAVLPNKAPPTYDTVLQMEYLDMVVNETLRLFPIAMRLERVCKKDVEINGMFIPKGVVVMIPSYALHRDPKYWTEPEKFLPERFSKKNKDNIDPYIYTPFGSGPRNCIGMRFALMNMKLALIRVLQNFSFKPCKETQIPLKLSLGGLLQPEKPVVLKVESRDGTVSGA
Test: Cytochrome P450 isoenzyme inhibition assay (P450 3A4, midazolam)
Assay type: in vitro ADME
Details: human liver microsomes, Midazolam as substrate; read-out: CYP3A4 inhibition IC50

{"COMPOUND": "C[C@@H](NC(=O)c1cc(N2CCC(N3CCCC3)CC2)c2ncnn2c1)c1cccc(C(F)(F)F)c1F", "IC50": "> 50 µM"}
{"COMPOUND": "Cc1c([C@@H](C)NC(=O)c2cc(N3CCC4(CCCN4C)CC3)c3nnc(C)n3c2)cccc1C(F)(F)F", "IC50": "> 50 µM"}
{"COMPOUND": "C[C@@H](NC(=O)c1cc(N2CCC(NC3COCC3O)CC2)c2ncnn2c1)c1cccc(C(F)(F)F)c1F (single isomer, unassigned) [Example cis-E41a]", "IC50": "> 50 µM"}

* * *

Molecular target: SOS1 and KRAS G12D (Homo sapiens (Human))
Assay: KRAS::SOS1 AlphaScreen binding assay (KRAS G12D)
Details: average of at least two measurements
Mark MET for IC50 under 40 nM, NOT MET if at or over.

{"COMPOUND": "C[C@@H](NC(=O)c1cc([C@H]2CC[C@H](N3CCC[C@H](O)C3)CC2)c2nncn2c1)c1cccc(C(F)F)c1F", "ASSIGNED LABEL": "MET"}
{"COMPOUND": "C[C@@H](NC(=O)c1cc(N2CCC3CCNC3C2)c2ncnn2c1)c1cccc(C(F)(F)F)c1F (single isomer, unassigned) [Example cis-E52a]", "ASSIGNED LABEL": "NOT MET"}
{"COMPOUND": "C[C@@H](NC(=O)c1cc([C@H]2CC[C@H](N3CCC(F)C(O)C3)CC2)c2ncnn2c1)c1cccc(C(F)(F)F)c1F (single isomer, unassigned) [Example trans-E70b]", "ASSIGNED LABEL": "NOT MET"}
{"COMPOUND": "C[C@@H](NC(=O)c1cc(N2CCC(N3CC[C@H](CO)C3)CC2)c2ncnn2c1)c1cccc(C(F)(F)F)c1F", "ASSIGNED LABEL": "NOT MET"}
{"COMPOUND": "C[C@@H](NC(=O)c1cc(N2CCC(N3CC4CC4C3CO)CC2)c2ncnn2c1)c1cccc(C(F)F)c1F (single isomer, unassigned) [Example cis-E11a]", "ASSIGNED LABEL": "MET"}
{"COMPOUND": "C[C@@H]1[C@H](O)CN1C1CCN(c2cc(C(=O)N[C@H](C)c3cccc(C(F)(F)F)c3F)cn3ncnc23)CC1", "ASSIGNED LABEL": "NOT MET"}
{"COMPOUND": "C[C@@H](NC(=O)c1cc(N2CCC(N3CCC[C@H]3CO)CC2)c2ncnn2c1)c1cccc(C(F)F)c1F", "ASSIGNED LABEL": "MET"}
{"COMPOUND": "Cc1c([C@@H](C)NC(=O)c2cc(N3CCC4(CCCN4C)CC3)c3nnc(C)n3c2)cccc1C(F)(F)F", "ASSIGNED LABEL": "MET"}
{"COMPOUND": "C[C@@H](NC(=O)c1cc(N2CCC3CCNC3C2)c2ncnn2c1)c1cccc(C(F)(F)F)c1F (single isomer, unassigned) [Example cis-E52b]", "ASSIGNED LABEL": "NOT MET"}
{"COMPOUND": "C[C@@H](NC(=O)c1cc(N2CCC(N3C[C@H](O)C4(CC4)C3)CC2)c2ncnn2c1)c1cccc(C(F)(F)F)c1F", "ASSIGNED LABEL": "NOT MET"}
{"COMPOUND": "C[C@@H](NC(=O)c1cc(N2CCC3(CCCCN3)CC2)c2ncnn2c1)c1cccc(C(F)F)c1F", "ASSIGNED LABEL": "MET"}
{"COMPOUND": "C[C@@H](NC(=O)c1cc(N2CCC(N3CCCC(C)(O)C3)CC2)c2ncnn2c1)c1cccc(C(F)(F)F)c1F (single isomer, unassigned) [Example E47b]", "ASSIGNED LABEL": "NOT MET"}

* * *

Quick reference: IC50 of the listed items.
Biological target: SOS1 and KRAS G12C (Homo sapiens (Human))
Sequence (Q07889 564-1049, stated change not applied): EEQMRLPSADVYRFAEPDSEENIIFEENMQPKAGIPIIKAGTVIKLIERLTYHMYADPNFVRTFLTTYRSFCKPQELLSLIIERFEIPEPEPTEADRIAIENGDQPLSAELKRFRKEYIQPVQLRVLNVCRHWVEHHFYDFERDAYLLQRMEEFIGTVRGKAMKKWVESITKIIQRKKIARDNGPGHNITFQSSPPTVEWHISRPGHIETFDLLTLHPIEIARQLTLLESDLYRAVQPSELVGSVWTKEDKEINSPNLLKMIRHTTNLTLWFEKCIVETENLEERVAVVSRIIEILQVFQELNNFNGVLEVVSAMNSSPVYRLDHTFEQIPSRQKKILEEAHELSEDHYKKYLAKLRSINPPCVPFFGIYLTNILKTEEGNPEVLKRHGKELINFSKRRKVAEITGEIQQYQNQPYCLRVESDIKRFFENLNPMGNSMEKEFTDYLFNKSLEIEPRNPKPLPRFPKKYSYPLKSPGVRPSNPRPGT
Assay: KRAS::SOS1 AlphaScreen binding assay (KRAS G12C)
Details: average of at least two measurements
MEASUREMENT LABEL: IC50 (nM)

{"COMPOUND": "C[C@@H](NC(=O)c1cc(N2CCC(N3CCCC3)CC2)c2ncnn2c1)c1cccc(C(F)(F)F)c1F", "MEASUREMENT LABEL": "IC50", "VALUE OBSERVED": 69}
{"COMPOUND": "C[C@@H](NC(=O)c1cc(N2CCC(N(C)C)CC2)c2ncnn2c1)c1cccc(C(F)(F)F)c1F", "MEASUREMENT LABEL": "IC50", "VALUE OBSERVED": 57}
{"COMPOUND": "C[C@@H]1C[C@H](O)CN1C1CCN(c2cc(C(=O)N[C@H](C)c3cccc(C(F)(F)F)c3F)cn3ncnc23)CC1", "MEASUREMENT LABEL": "IC50", "VALUE OBSERVED": 56}
{"COMPOUND": "CO[C@H]1CCN(C2CCN(c3cc(C(=O)N[C@H](C)c4cccc(C(F)F)c4F)cn4ncnc34)CC2)C1", "MEASUREMENT LABEL": "IC50", "VALUE OBSERVED": 74}
{"COMPOUND": "C[C@@H](NC(=O)c1cc(N2CCC3CCNC3C2)c2ncnn2c1)c1cccc(C(F)(F)F)c1F (single isomer, unassigned) [Example cis-E52b]", "MEASUREMENT LABEL": "IC50", "VALUE OBSERVED": 71}
{"COMPOUND": "C[C@@H](NC(=O)c1cc(N2CCC(N3CC[C@@H](CO)C3)CC2)c2ncnn2c1)c1cccc(C(C)(F)F)c1F", "MEASUREMENT LABEL": "IC50", "VALUE OBSERVED": 64}
{"COMPOUND": "C[C@@H](NC(=O)c1cc(N2CCC(O)(C3CCCN3)CC2)c2ncnn2c1)c1cccc(C(F)F)c1F (single isomer, unassigned) [Example E38a]", "MEASUREMENT LABEL": "IC50", "VALUE OBSERVED": 66}
{"COMPOUND": "C[C@@H]1[C@H](O)CN1C1CCN(c2cc(C(=O)N[C@H](C)c3cccc(C(F)(F)F)c3F)cn3ncnc23)CC1", "MEASUREMENT LABEL": "IC50", "VALUE OBSERVED": 63}
{"COMPOUND": "C[C@@H](NC(=O)c1cc(N2CCC(N3CCO[C@H](CO)C3)CC2)c2ncnn2c1)c1cccc(C(F)F)c1F", "MEASUREMENT LABEL": "IC50", "VALUE OBSERVED": 69}
{"COMPOUND": "C[C@@H](NC(=O)c1cc(N2CCC3CCNC3C2)c2ncnn2c1)c1cccc(C(F)(F)F)c1F (single isomer, unassigned) [Example cis-E52a]", "MEASUREMENT LABEL": "IC50", "VALUE OBSERVED": 59}
{"COMPOUND": "C[C@@H](NC(=O)c1cc(N2CCC(N3CCC4(CC4)C3)CC2)c2ncnn2c1)c1cccc(C(F)(F)F)c1F", "MEASUREMENT LABEL": "IC50", "VALUE OBSERVED": 80}
{"COMPOUND": "C[C@@H](NC(=O)c1cc(N2CCC3(CCCN3C)CC2)c2nncn2c1)c1cccc(C(F)(F)F)c1F", "MEASUREMENT LABEL": "IC50", "VALUE OBSERVED": 27}
{"COMPOUND": "C[C@@H](NC(=O)c1cc([C@H]2CC[C@H](N3CCC[C@H](O)C3)CC2)c2nncn2c1)c1cccc(C(F)F)c1F", "MEASUREMENT LABEL": "IC50", "VALUE OBSERVED": 25}

* * *

System: human hepatocytes
Assay: Metabolic stability in human hepatocytes
Details: 1 μM test compound, 50% human serum, percentage of liver blood flow
Quick reference: Hepatic clearance - QH[%] in human hepatocytes of the listed items.
MEASUREMENT LABEL: Hepatic clearance - QH[%] in human hepatocytes (%)

{"MOLECULE": "C[C@@H](NC(=O)c1cc(N2CCC(O)(C3CCCN3)CC2)c2ncnn2c1)c1cccc(C(F)F)c1F (single isomer, unassigned) [Example E38b]", "UNIT STRING": "%", "VALUE OBSERVED": 11}
{"MOLECULE": "Cc1nc2c([C@H]3CC[C@H](N4CCC[C@H](O)C4)CC3)cc(C(=O)N[C@H](C)c3cccc(C(F)F)c3F)cn2n1 [Example E85]", "UNIT STRING": "%", "VALUE OBSERVED": 14}
{"MOLECULE": "C[C@@H](NC(=O)c1cc(N2CCC3(CCCN3C)CC2)c2ncnn2c1)c1cccc(C(F)F)c1F [Example E20]", "UNIT STRING": "%", "VALUE OBSERVED": 19}
{"MOLECULE": "C[C@@H](NC(=O)c1cc(N2CCC(N3CC4CC4C3CO)CC2)c2ncnn2c1)c1cccc(C(F)F)c1F (single isomer, unassigned) [Example cis-E11b]", "UNIT STRING": "%", "VALUE OBSERVED": 27}
{"MOLECULE": "C[C@@H](NC(=O)c1cc(N2CCC3(CCCN3C)CC2)c2ncnn2c1)c1cccc(C(F)(F)F)c1F [Example E37]", "UNIT STRING": "%", "VALUE OBSERVED": 25}
{"MOLECULE": "C[C@@H](NC(=O)c1cc(N2CCC(N3CCCC3)CC2)c2ncnn2c1)c1cccc(C(F)(F)F)c1F [Example E48]", "UNIT STRING": "%", "VALUE OBSERVED": 27}
